tgt: T1, human VEGF165 (human, UniProt P15692)
T1 chain: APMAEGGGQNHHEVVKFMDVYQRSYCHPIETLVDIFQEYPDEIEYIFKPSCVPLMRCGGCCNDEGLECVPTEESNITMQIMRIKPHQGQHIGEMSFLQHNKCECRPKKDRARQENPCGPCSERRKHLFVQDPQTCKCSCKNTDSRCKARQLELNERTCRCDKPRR
assayText: SPR, pH 5
Consider the following binders and their measured Kd readings.
Write the number in nM without appending the unit.

GET /value?item= 578-min (antibody, V domains shown) VH: EVQLVESGGGLVQPGGSLRLSCAASGFSLTDYYYMTWVRQAPGKGLEWVSFIDPDDDPYYATWAKGRFTISRDNSKNTLYLQMNSLRAEDTAVYYCAKGDHNSGWGLDIWGQGTLVTVSS VL: EIVMTQSPSTLSASVGDRVIITCQASEIIHSWLAWYQQKPGKAPKLLIYLASTLASGVPSRFSGSGSGAEFTLTISSLQPDDFATYYCQNVYLASTNGANFGQGTKLTVLG &field=Kd returns 9.01

GET /value?item= 375-min (antibody, V domains shown) VH: EVQLVESGGGLVQPGGSLRLSCAASGFSFTTTDYMCWVRQAPGKGLEWVSCILAGDGSTYYANWAKGRFTISRDNSKNTLYLQMNSLRAEDTAVYYCAKSDPASSWSFALWGQGTLVTVSS VL: EIVMTQSPSTLSASVGDRVIITCQASENINIWLSWYQQKPGKAPKLLIYQASKLASGVPSRFSGSGSGAEFTLTISSLQPDDFATYYCQNNYSYNRYGAPFGQGTKLTVLG &field=Kd returns 5.41

GET /value?item= 511-min (antibody, V domains shown) VH: EVQLVESGGGLVQPGGSLRLSCAASGFSLNTYYMNWVRQAPGKGLEWVSIIAPDDTTYYASWAKSRFTISRDNSKNTLYLQMNSLRAEDTAVYYCAKSGDTTAWGADIWGQGTLVTVSS VL: EIVMTQSPSTLSASVGDRVIITCQASQSINIWCSWYQQKPGKAPKLLIYRASTLASGVPSRFSGSGSGAEFTLTISSLQPDDFATYYCQANYAYSAGYGAAFGQGTKLTVLG &field=Kd returns 2.53
